studySystem: D37G OMPDC (Saccharomyces cerevisiae, UniProt P03962, D37G)
Sequence (P03962 whole entry D37G): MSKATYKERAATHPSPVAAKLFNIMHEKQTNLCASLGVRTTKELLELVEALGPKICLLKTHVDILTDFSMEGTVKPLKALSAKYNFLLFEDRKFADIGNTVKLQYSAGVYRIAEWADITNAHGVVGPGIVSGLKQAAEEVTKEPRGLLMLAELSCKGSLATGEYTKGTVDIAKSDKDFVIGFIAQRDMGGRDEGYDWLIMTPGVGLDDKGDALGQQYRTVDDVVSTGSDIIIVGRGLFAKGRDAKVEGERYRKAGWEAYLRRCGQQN
testMethodNotes: D37G variant OMPDC-catalyzed decarboxylation of FO, dianion-activated
Assay type: biochemical
propertyLabel: Kd (mM)

[[record]]
compound = "O=P(O)(O)OC[C@@H](O)[C@@H](O)CO [DE4P, D-erythritol 4-phosphate]"
studysystem = "D37G OMPDC (Saccharomyces cerevisiae, UniProt P03962, D37G)"
propertylabel = "Kd"
result = 3


Entry source: paper PMC8650221
